assayOverview: Antioxidant activity assessed as DPPH radical scavenging activity at 200 uM after 30 mins (reference value: 100%)
Assay type: functional

[
  {
    "sampleSmiles": "FC(F)(F)c1cccc([Se]c2ncnc3[nH]cnc23)c1",
    "Activity": "99%"
  },
  {
    "sampleSmiles": "COc1ccc([Se]c2ncnc3[nH]cnc23)cc1",
    "Activity": "97.5%"
  },
  {
    "sampleSmiles": "Clc1ccc([Se]c2ncnc3[nH]cnc23)cc1",
    "Activity": "68%"
  },
  {
    "sampleSmiles": "Cc1ccccc1[Se]c1ncnc2[nH]cnc12",
    "Activity": "98.7%"
  },
  {
    "sampleSmiles": "c1ccc([Se]c2ncnc3[nH]cnc23)cc1",
    "Activity": "90.1%"
  },
  {
    "sampleSmiles": "Cc1ccc([Se]c2ncnc3[nH]cnc23)cc1",
    "Activity": "93%"
  },
  {
    "sampleSmiles": "Fc1ccc([Se]c2ncnc3[nH]cnc23)cc1",
    "Activity": "98%"
  }
]

###

The compounds listed here are annotated with their Activity.
studySystem: Acetylcholinesterase (Mus musculus) (UniProt P21836)
Sequence (whole entry): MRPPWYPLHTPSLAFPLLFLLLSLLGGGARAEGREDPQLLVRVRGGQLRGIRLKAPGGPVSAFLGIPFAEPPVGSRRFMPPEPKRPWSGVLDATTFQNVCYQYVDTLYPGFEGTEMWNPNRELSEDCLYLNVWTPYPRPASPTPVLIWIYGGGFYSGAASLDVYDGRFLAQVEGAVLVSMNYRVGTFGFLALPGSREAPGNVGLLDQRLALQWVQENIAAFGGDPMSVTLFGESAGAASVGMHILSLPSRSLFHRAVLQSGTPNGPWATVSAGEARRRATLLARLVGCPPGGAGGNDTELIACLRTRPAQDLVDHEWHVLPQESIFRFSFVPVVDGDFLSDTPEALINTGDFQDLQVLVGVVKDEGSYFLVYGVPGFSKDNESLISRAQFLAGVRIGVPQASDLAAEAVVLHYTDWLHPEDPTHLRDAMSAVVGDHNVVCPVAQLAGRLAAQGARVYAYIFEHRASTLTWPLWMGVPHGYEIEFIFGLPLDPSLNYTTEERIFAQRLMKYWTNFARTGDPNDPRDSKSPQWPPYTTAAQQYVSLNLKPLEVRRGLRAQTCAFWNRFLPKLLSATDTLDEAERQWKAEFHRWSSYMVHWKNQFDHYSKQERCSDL
assayOverview: Inhibition of AChE in Swiss mouse cerebral cortex homogenate using acetylthiocholine as substrate assessed as acetylthiocholine level per mg protein at 200 uM preincubated for 2 mins followed by substrate addition by DTNB based assay (reference value: 9.6 +/- 0.5 umol/hr)

[
  {
    "sampleSmiles": "FC(F)(F)c1cccc([Se]c2ncnc3[nH]cnc23)c1",
    "unitAbbreviation": "µmol/h",
    "Activity": 8.2
  },
  {
    "sampleSmiles": "Cc1ccc([Se]c2ncnc3[nH]cnc23)cc1",
    "unitAbbreviation": "µmol/h",
    "Activity": 8.9
  },
  {
    "sampleSmiles": "c1ccc([Se]c2ncnc3[nH]cnc23)cc1",
    "unitAbbreviation": "µmol/h",
    "Activity": 7.6
  },
  {
    "sampleSmiles": "Cc1ccccc1[Se]c1ncnc2[nH]cnc12",
    "unitAbbreviation": "µmol/h",
    "Activity": 6.3
  },
  {
    "sampleSmiles": "Fc1ccc([Se]c2ncnc3[nH]cnc23)cc1",
    "unitAbbreviation": "µmol/h",
    "Activity": 6.6
  },
  {
    "sampleSmiles": "Clc1ccc([Se]c2ncnc3[nH]cnc23)cc1",
    "unitAbbreviation": "µmol/h",
    "Activity": 7.8
  },
  {
    "sampleSmiles": "COc1ccc([Se]c2ncnc3[nH]cnc23)cc1",
    "unitAbbreviation": "µmol/h",
    "Activity": 8.8
  }
]

###

studySystem: Acetylcholinesterase (Mus musculus)
assayOverview: Inhibition of AChE in Swiss mouse cerebral cortex homogenate using acetylthiocholine as substrate assessed as acetylthiocholine level per mg protein at 1 uM preincubated for 2 mins followed by substrate addition by DTNB based assay (reference value: 9.6 +/- 0.5 umol/hr)
quantityKind: Activity (µmol/h)

[
  {
    "sampleSmiles": "Cc1ccc([Se]c2ncnc3[nH]cnc23)cc1",
    "studySystem": "Acetylcholinesterase (Mus musculus)",
    "quantityKind": "Activity",
    "unitAbbreviation": "µmol/h",
    "val": 8.7
  },
  {
    "sampleSmiles": "Clc1ccc([Se]c2ncnc3[nH]cnc23)cc1",
    "studySystem": "Acetylcholinesterase (Mus musculus)",
    "quantityKind": "Activity",
    "unitAbbreviation": "µmol/h",
    "val": 7.2
  },
  {
    "sampleSmiles": "Cc1ccccc1[Se]c1ncnc2[nH]cnc12",
    "studySystem": "Acetylcholinesterase (Mus musculus)",
    "quantityKind": "Activity",
    "unitAbbreviation": "µmol/h",
    "val": 7.9
  },
  {
    "sampleSmiles": "FC(F)(F)c1cccc([Se]c2ncnc3[nH]cnc23)c1",
    "studySystem": "Acetylcholinesterase (Mus musculus)",
    "quantityKind": "Activity",
    "unitAbbreviation": "µmol/h",
    "val": 7.9
  },
  {
    "sampleSmiles": "c1ccc([Se]c2ncnc3[nH]cnc23)cc1",
    "studySystem": "Acetylcholinesterase (Mus musculus)",
    "quantityKind": "Activity",
    "unitAbbreviation": "µmol/h",
    "val": 7.8
  },
  {
    "sampleSmiles": "COc1ccc([Se]c2ncnc3[nH]cnc23)cc1",
    "studySystem": "Acetylcholinesterase (Mus musculus)",
    "quantityKind": "Activity",
    "unitAbbreviation": "µmol/h",
    "val": 10.4
  },
  {
    "sampleSmiles": "Fc1ccc([Se]c2ncnc3[nH]cnc23)cc1",
    "studySystem": "Acetylcholinesterase (Mus musculus)",
    "quantityKind": "Activity",
    "unitAbbreviation": "µmol/h",
    "val": 6.6
  }
]

###

assayOverview: Antioxidant activity assessed as ABTS radical scavenging activity at 1 uM after 30 mins (reference value: 100%)
Type: functional
The compounds listed here are annotated with their Activity.

[
  {
    "sampleSmiles": "COc1ccc([Se]c2ncnc3[nH]cnc23)cc1",
    "Activity, %": 101
  },
  {
    "sampleSmiles": "Clc1ccc([Se]c2ncnc3[nH]cnc23)cc1",
    "Activity, %": 99.5
  },
  {
    "sampleSmiles": "Cc1ccccc1[Se]c1ncnc2[nH]cnc12",
    "Activity, %": 99.3
  },
  {
    "sampleSmiles": "c1ccc([Se]c2ncnc3[nH]cnc23)cc1",
    "Activity, %": 99.9
  }
]

###

studySystem: Acetylcholinesterase (Mus musculus) (UniProt P21836)
assayOverview: Inhibition of AChE in Swiss mouse cerebral cortex homogenate using acetylthiocholine as substrate assessed as acetylthiocholine level per mg protein at 10 uM preincubated for 2 mins followed by substrate addition by DTNB based assay (reference value: 9.6 +/- 0.5 umol/hr)
quantityKind: Activity

[
  {
    "sampleSmiles": "FC(F)(F)c1cccc([Se]c2ncnc3[nH]cnc23)c1",
    "val": "8.9 µmol/h"
  },
  {
    "sampleSmiles": "Cc1ccccc1[Se]c1ncnc2[nH]cnc12",
    "val": "7.6 µmol/h"
  },
  {
    "sampleSmiles": "Cc1ccc([Se]c2ncnc3[nH]cnc23)cc1",
    "val": "9.3 µmol/h"
  },
  {
    "sampleSmiles": "c1ccc([Se]c2ncnc3[nH]cnc23)cc1",
    "val": "7.6 µmol/h"
  }
]
